target: Aromatase (Homo sapiens); assay: qHTS assay to identify aromatase inhibitors (AID 743083); settings: MCF-7 aro ERE, testosterone-driven ERE luciferase, 24 h; series mostly up to 70.3 µM; also: nearly all actives have a fitted effect of over 55% in size
Results filed as inconclusive are left out. Calls of active or inactive are those of the source. Calls follow the shape of the dose curve; as a rule, active = well fitted inhibition curve with a large enough effect in the repeat runs; inconclusive = weak or mixed curves; inactive = no such curve, though single readings can be large or run the other way.
Outcomes: active, inactive

# Compound, System tested, Class
rows = [
    ("CC1=CC[C@@]23C[C@@H]1C(C)(C)[C@@H]2CC[C@H]3C", "Aromatase (Homo sapiens)", "inactive"),
    ("CC(C)OC(=O)c1ccccc1C(=O)OC(C)C", "Aromatase (Homo sapiens)", "inactive"),
    ("CCCCCCCCCCCCCC(=O)OCC(O)CO (stereo unspecified)", "Aromatase (Homo sapiens)", "inactive"),
    ("CN1C(CSCC(F)(F)F)Nc2cc(Cl)c(S(N)(=O)=O)cc2S1(=O)=O (stereo unspecified)", "Aromatase (Homo sapiens)", "inactive"),
    ("COC(=O)c1sccc1S(N)(=O)=O", "Aromatase (Homo sapiens)", "inactive"),
    ("CCSC(=O)N(CC)CC", "Aromatase (Homo sapiens)", "inactive"),
    ("BrC(Br)C(Br)Br", "Aromatase (Homo sapiens)", "inactive"),
    ("CC(C)(O)c1coc(S(=O)(=O)NC(=O)Nc2c3c(cc4c2CCC4)CCC3)c1", "Aromatase (Homo sapiens)", "inactive"),
    ("O=C(NC(Cc1cc(=O)[nH]c2ccccc12)C(=O)O)c1ccc(Cl)cc1 (stereo unspecified)", "Aromatase (Homo sapiens)", "inactive"),
    ("CCCCCCCCCCCC(=O)OCC(O)CO (stereo unspecified)", "Aromatase (Homo sapiens)", "inactive"),
    ("CCN(CC)CCOc1ccccc1C(=O)CCc1ccccc1", "Aromatase (Homo sapiens)", "inactive"),
    ("CC(=O)C(=O)CC(C)C", "Aromatase (Homo sapiens)", "inactive"),
    ("Nc1ccc(N=Nc2ccc(N)cc2)cc1", "Aromatase (Homo sapiens)", "inactive"),
    ("Oc1ccc2c(c1)Cc1ccccc1-2", "Aromatase (Homo sapiens)", "inactive"),
    ("Cc1cccc2sc(N)nc12", "Aromatase (Homo sapiens)", "inactive"),
    ("CC[C@H]1OC(=O)[C@H](C)[C@@H](O[C@H]2C[C@@](C)(OC)[C@@H](O)[C@H](C)O2)[C@H](C)[C@@H](O[C@@H]2O[C@H](C)C[C@H](N(C)C)[C@H]2O)[C@](C)(O)C[C@@H](C)CN(C)[C@H](C)[C@@H](O)[C@]1(C)O", "Aromatase (Homo sapiens)", "inactive"),
    ("C[C@H](CS)C(=O)N1CCC[C@H]1C(=O)O", "Aromatase (Homo sapiens)", "inactive"),
    ("O=C(O)CCS", "Aromatase (Homo sapiens)", "inactive"),
    ("CCCCCCCCCCCCCOC(=O)CCSCCC(=O)OCCCCCCCCCCCCC", "Aromatase (Homo sapiens)", "inactive"),
    ("C=C(C)C(=O)OCCC(F)(F)C(F)(F)C(F)(F)C(F)(F)C(F)(F)C(F)(F)F", "Aromatase (Homo sapiens)", "inactive"),
    ("Cc1ccc(Nc2c(F)cccc2Cl)c(CC(=O)O)c1", "Aromatase (Homo sapiens)", "inactive"),
    ("c1ccc(CNc2ncnc3c2ncn3C2CCCCO2)cc1 (stereo unspecified)", "Aromatase (Homo sapiens)", "inactive"),
    ("CC(=O)OCCC1CCCCC1", "Aromatase (Homo sapiens)", "inactive"),
    ("Cc1ccc2c(c1[N+](=O)[O-])C(=O)c1ccccc1C2=O", "Aromatase (Homo sapiens)", "inactive"),
    ("CCCC(=O)OC(=O)CCC", "Aromatase (Homo sapiens)", "inactive"),
    ("Cc1cn([C@H]2C[C@H](F)[C@@H](CO)O2)c(=O)[nH]c1=O", "Aromatase (Homo sapiens)", "inactive"),
    ("CCCCCCCCCCCCCOS(=O)(=O)O", "Aromatase (Homo sapiens)", "inactive"),
    ("COc1ccc(C(=O)NCc2ccc(OCCN(C)C)cc2)cc1OC", "Aromatase (Homo sapiens)", "inactive"),
    ("CCOC(=O)c1ccc(NC(=O)CN2CCCCC2)cc1", "Aromatase (Homo sapiens)", "inactive"),
    ("C=Cc1ccc(OC(C)=O)cc1", "Aromatase (Homo sapiens)", "inactive"),
    ("CCN(Cc1cccc(S(=O)(=O)O)c1)c1ccc(C(=C2C=CC(=[N+](CC)Cc3cccc(S(=O)(=O)O)c3)C=C2)c2ccccc2S(=O)(=O)[O-])cc1", "Aromatase (Homo sapiens)", "active"),
    ("CC1CCCO1 (stereo unspecified)", "Aromatase (Homo sapiens)", "inactive"),
    ("Cc1ccc(NC(=O)N(C)C)cc1NC(=O)N(C)C", "Aromatase (Homo sapiens)", "inactive"),
    ("COc1ccc(CCN(C)CCCN2CCc3cc(OC)c(OC)cc3CC2=O)cc1OC", "Aromatase (Homo sapiens)", "inactive"),
    ("O=C(/C=C/c1ccc([N+](=O)[O-])cc1)c1ccccc1", "Aromatase (Homo sapiens)", "inactive"),
    ("COC(C)(C)OC", "Aromatase (Homo sapiens)", "inactive"),
    ("Cc1ccc(Cl)cc1N", "Aromatase (Homo sapiens)", "inactive"),
    ("CC(C)c1ccc(C(=O)N=C(N)N)cc1S(C)(=O)=O", "Aromatase (Homo sapiens)", "inactive"),
    ("N[C@@H](Cc1cc(I)c(O)c(I)c1)C(=O)O", "Aromatase (Homo sapiens)", "inactive"),
    ("CC(CO)(CO)C(=O)O", "Aromatase (Homo sapiens)", "inactive"),
    ("O=C(Nc1ccc(C(=O)O)c(O)c1)c1ccccc1", "Aromatase (Homo sapiens)", "inactive"),
    ("CCN(CC)C(=O)/C(C#N)=C/c1cc(O)c(O)c([N+](=O)[O-])c1", "Aromatase (Homo sapiens)", "inactive"),
    ("O=C(c1ccccc1)c1ccc(O)cc1", "Aromatase (Homo sapiens)", "inactive"),
    ("O=C1NC(=O)c2cccc3cccc1c23", "Aromatase (Homo sapiens)", "inactive"),
    ("CC(C(=O)O)c1ccc(C(=O)c2cccs2)cc1 (stereo unspecified)", "Aromatase (Homo sapiens)", "inactive"),
    ("CC(C)C(=O)OCCOc1ccccc1", "Aromatase (Homo sapiens)", "inactive"),
]
